System: 521955-158-R2-J5-PDC complex spheroid viability
Test: Anticancer human tumor 521955-158-R2-J5-PDC patient-derived pancreatic carcinoma cell line growth inhibition [GQUAD]
Details: second compound 0.0316 µM; first compound 0.1 µM; active compounds read low
In this section, each of the compounds is paired with its reported viability, T/C.

- Compound: "COc1ccc([C@@H](O)c2cc(-c3ncnc4cc(N5CCOCC5)ccc34)c(F)cc2Cl)nn1 + Cc1[nH]c2ccc(F)cc2c1-c1nc2c3cccnc3c3ncccc3c2[nH]1"
  Test target: "521955-158-R2-J5-PDC complex spheroid viability"
  viability, T/C: "92.3%"
- Compound: "C=CC(=O)N1CCN(c2nc(=O)n(-c3c(C)ccnc3C(C)C)c3nc(-c4c(O)cccc4F)c(F)cc23)C(C)C1 (stereo not given) + CN(C)c1ccc(Nc2c3ccc(NC(=O)CCN4CCCC4)cc3nc3cc(NC(=O)CCN4CCCC4)ccc23)cc1"
  Test target: "521955-158-R2-J5-PDC complex spheroid viability"
  viability, T/C: "94.1%"
- Compound: "Nc1ccn(C2OC(CO)C(O)C2(F)F)c(=O)n1 (stereo not given) + Cc1cnc(CNC(=O)c2c(=O)c3ccc(N4CCCN(C)CC4)nc3n3c2sc2ccccc23)cn1"
  Test target: "521955-158-R2-J5-PDC complex spheroid viability"
  viability, T/C: "63.6%"
- Compound: "CC(=O)O[C@H]1C(=O)[C@@]2(C)[C@H]([C@H](OC(=O)c3ccccc3)[C@]3(O)C[C@H](OC(=O)[C@H](O)[C@@H](NC(=O)c4ccccc4)c4ccccc4)C(C)=C1C3(C)C)[C@]1(OC(C)=O)CO[C@@H]1C[C@@H]2O + Cc1cnc(CNC(=O)c2c(=O)c3ccc(N4CCCN(C)CC4)nc3n3c2sc2ccccc23)cn1"
  Test target: "521955-158-R2-J5-PDC complex spheroid viability"
  viability, T/C: "14.8%"
- Compound: "COc1ncnc(C2CC2)c1-c1ncc2cnn(Cc3ccc(-c4nc(C(F)(F)F)cn4C(C)C)cc3)c2n1 + Cc1cnc(CNC(=O)c2c(=O)c3ccc(N4CCCN(C)CC4)nc3n3c2sc2ccccc23)cn1"
  Test target: "521955-158-R2-J5-PDC complex spheroid viability"
  viability, T/C: "73.3%"

---

System: 521955-158-R2-J5-PDC complex spheroid viability
Assay: Anticancer human tumor 521955-158-R2-J5-PDC cell line growth inhibition [GQUAD];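 also: spheroids exposed to agents for one week before reading; 100% = DMSO vehicle control viability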
Settings: second compound 0.316 µM; first compound 0.0316 µM; active compounds read low
Decision: viability, T/C beneath 80% gives Criterion met; viability, T/C meeting or exceeding 80% gives Criterion not met.

- Compound: "O=C(NO)c1cnc(N2CCN(S(=O)(=O)c3ccc4ccccc4c3)CC2)nc1 + Cc1cnc(CNC(=O)c2c(=O)c3ccc(N4CCCN(C)CC4)nc3n3c2sc2ccccc23)cn1"
  Class: "Criterion met"
- Compound: "CC1COCCN1c1cc(C2(S(C)(=N)=O)CC2)nc(-c2ccnc3[nH]ccc23)n1 (stereo unspecified) + Cc1[nH]c2ccc(F)cc2c1-c1nc2c3cccnc3c3ncccc3c2[nH]1"
  Class: "Criterion not met"
- Compound: "CC1COCCN1c1cc(-c2ccnn2C)c2ccnc(-c3ccn[nH]3)c2n1 (stereo unspecified) + Cc1cnc(CNC(=O)c2c(=O)c3ccc(N4CCCN(C)CC4)nc3n3c2sc2ccccc23)cn1"
  Class: "Criterion met"
- Compound: "CCCS(=O)(=O)Nc1ccc(F)c(C(=O)c2c[nH]c3ncc(-c4ccc(Cl)cc4)cc23)c1F + Cc1cnc(CNC(=O)c2c(=O)c3ccc(N4CCCN(C)CC4)nc3n3c2sc2ccccc23)cn1"
  Class: "Criterion met"
- Compound: "COc1ncnc(C2CC2)c1-c1ncc2cnn(Cc3ccc(-c4nc(C(F)(F)F)cn4C(C)C)cc3)c2n1 + Cc1cnc(CNC(=O)c2c(=O)c3ccc(N4CCCN(C)CC4)nc3n3c2sc2ccccc23)cn1"
  Class: "Criterion met"
- Compound: "CC1COCCN1c1cc(C2(O)CC3CCC(C2)O3)c2cnn(-c3ccn[nH]3)c2n1 (stereo unspecified) + Cc1[nH]c2ccc(F)cc2c1-c1nc2c3cccnc3c3ncccc3c2[nH]1"
  Class: "Criterion met"
- Compound: "CC1COCCN1c1cc(C2(O)CC3CCC(C2)O3)c2cnn(-c3ccn[nH]3)c2n1 (stereo unspecified) + CN(C)c1ccc(Nc2c3ccc(NC(=O)CCN4CCCC4)cc3nc3cc(NC(=O)CCN4CCCC4)ccc23)cc1"
  Class: "Criterion met"
- Compound: "O=c1[nH]cc(F)c(=O)[nH]1 + CN(C)c1ccc(Nc2c3ccc(NC(=O)CCN4CCCC4)cc3nc3cc(NC(=O)CCN4CCCC4)ccc23)cc1"
  Class: "Criterion not met"
- Compound: "C#Cc1c(F)ccc2cc(O)cc(-c3ncc4c(N5CC6CCC(C5)N6)nc(OCC56CCCN5CC(F)C6)nc4c3F)c12 (stereo unspecified) + CN(C)c1ccc(Nc2c3ccc(NC(=O)CCN4CCCC4)cc3nc3cc(NC(=O)CCN4CCCC4)ccc23)cc1"
  Class: "Criterion met"
- Compound: "COc1cc(C2c3cc4c(cc3C(OC3OC5COC(C)OC5C(O)C3O)C3COC(=O)C23)OCO4)cc(OC)c1O (stereo unspecified) + CN(C)c1ccc(Nc2c3ccc(NC(=O)CCN4CCCC4)cc3nc3cc(NC(=O)CCN4CCCC4)ccc23)cc1"
  Class: "Criterion not met"
- Compound: "CC[C@@]1(O)C(=O)OCc2c1cc1n(c2=O)Cc2cc3c(CN(C)C)c(O)ccc3nc2-1 + Cc1[nH]c2ccc(F)cc2c1-c1nc2c3cccnc3c3ncccc3c2[nH]1"
  Class: "Criterion not met"

---

Below, each entry is listed alongside its reported viability, T/C.
System: 521955-158-R2-J5-PDC complex spheroid viability
Assay: Anticancer human tumor 521955-158-R2-J5-PDC cell line growth inhibition [GQUAD];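 also: spheroids exposed to agents for one week before reading; 100% = DMSO vehicle control viability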
Settings: second compound 3.16 µM; first compound 0.1 µM; active compounds read low
Recorded metric: viability, T/C (%)

- Compound: "C=CC(=O)N1CCN(c2nc(=O)n(-c3c(C)ccnc3C(C)C)c3nc(-c4c(O)cccc4F)c(F)cc23)C(C)C1 (stereo not given) + Cc1cnc(CNC(=O)c2c(=O)c3ccc(N4CCCN(C)CC4)nc3n3c2sc2ccccc23)cn1"
  Readout value: 17.6
- Compound: "CC(C)(O)C1CCC(Nc2ccc3ncc(-c4cccc(C(F)(F)F)c4)n3n2)CC1 (stereo not given) + CN(C)c1ccc(Nc2c3ccc(NC(=O)CCN4CCCC4)cc3nc3cc(NC(=O)CCN4CCCC4)ccc23)cc1"
  Readout value: 87.3
- Compound: "O=C(c1cc(Cc2n[nH]c(=O)c3ccccc23)ccc1F)N1CCN(C(=O)C2CC2)CC1 + CN(C)c1ccc(Nc2c3ccc(NC(=O)CCN4CCCC4)cc3nc3cc(NC(=O)CCN4CCCC4)ccc23)cc1"
  Readout value: 90.5
- Compound: "C=CC(=O)N1CCN(c2nc(=O)n(-c3c(C)ccnc3C(C)C)c3nc(-c4c(O)cccc4F)c(F)cc23)C(C)C1 (stereo not given) + CN(C)c1ccc(Nc2c3ccc(NC(=O)CCN4CCCC4)cc3nc3cc(NC(=O)CCN4CCCC4)ccc23)cc1"
  Readout value: 87.5
- Compound: "O=C(NO)c1cnc(N2CCN(S(=O)(=O)c3ccc4ccccc4c3)CC2)nc1 + CN(C)c1ccc(Nc2c3ccc(NC(=O)CCN4CCCC4)cc3nc3cc(NC(=O)CCN4CCCC4)ccc23)cc1"
  Readout value: 142
- Compound: "COc1cc(C2c3cc4c(cc3C(OC3OC5COC(C)OC5C(O)C3O)C3COC(=O)C23)OCO4)cc(OC)c1O (stereo not given) + Cc1cnc(CNC(=O)c2c(=O)c3ccc(N4CCCN(C)CC4)nc3n3c2sc2ccccc23)cn1"
  Readout value: 18
- Compound: "C=CCn1c(=O)c2cnc(Nc3ccc(N4CCN(C)CC4)cc3)nc2n1-c1cccc(C(C)(C)O)n1 + Cc1[nH]c2ccc(F)cc2c1-c1nc2c3cccnc3c3ncccc3c2[nH]1"
  Readout value: 60.4
- Compound: "COc1ccc([C@@H](O)c2cc(-c3ncnc4cc(N5CCOCC5)ccc34)c(F)cc2Cl)nn1 + CN(C)c1ccc(Nc2c3ccc(NC(=O)CCN4CCCC4)cc3nc3cc(NC(=O)CCN4CCCC4)ccc23)cc1"
  Readout value: 83.1
- Compound: "CC(=O)O[C@H]1C(=O)[C@@]2(C)[C@H]([C@H](OC(=O)c3ccccc3)[C@]3(O)C[C@H](OC(=O)[C@H](O)[C@@H](NC(=O)c4ccccc4)c4ccccc4)C(C)=C1C3(C)C)[C@]1(OC(C)=O)CO[C@@H]1C[C@@H]2O + CN(C)c1ccc(Nc2c3ccc(NC(=O)CCN4CCCC4)cc3nc3cc(NC(=O)CCN4CCCC4)ccc23)cc1"
  Readout value: 31.1
- Compound: "COc1ncnc(C2CC2)c1-c1ncc2cnn(Cc3ccc(-c4nc(C(F)(F)F)cn4C(C)C)cc3)c2n1 + Cc1[nH]c2ccc(F)cc2c1-c1nc2c3cccnc3c3ncccc3c2[nH]1"
  Readout value: 90.1
- Compound: "Cc1cccc(N(C)C(=O)C2C(O)CCN2c2nc(C)cc(C(F)(F)F)c2C#N)c1 (stereo not given) + Cc1[nH]c2ccc(F)cc2c1-c1nc2c3cccnc3c3ncccc3c2[nH]1"
  Readout value: 88.2
- Compound: "CC(=O)O[C@H]1C(=O)[C@@]2(C)[C@H]([C@H](OC(=O)c3ccccc3)[C@]3(O)C[C@H](OC(=O)[C@H](O)[C@@H](NC(=O)c4ccccc4)c4ccccc4)C(C)=C1C3(C)C)[C@]1(OC(C)=O)CO[C@@H]1C[C@@H]2O + Cc1[nH]c2ccc(F)cc2c1-c1nc2c3cccnc3c3ncccc3c2[nH]1"
  Readout value: 36.7
- Compound: "O=c1[nH]cc(F)c(=O)[nH]1 + CN(C)c1ccc(Nc2c3ccc(NC(=O)CCN4CCCC4)cc3nc3cc(NC(=O)CCN4CCCC4)ccc23)cc1"
  Readout value: 87.4
- Compound: "Nc1ccn(C2OC(CO)C(O)C2(F)F)c(=O)n1 (stereo not given) + Cc1[nH]c2ccc(F)cc2c1-c1nc2c3cccnc3c3ncccc3c2[nH]1"
  Readout value: 93.3
- Compound: "COc1ncnc(C2CC2)c1-c1ncc2cnn(Cc3ccc(-c4nc(C(F)(F)F)cn4C(C)C)cc3)c2n1 + Cc1cnc(CNC(=O)c2c(=O)c3ccc(N4CCCN(C)CC4)nc3n3c2sc2ccccc23)cn1"
  Readout value: 14.3
- Compound: "CC(C)(O)C1CCC(Nc2ccc3ncc(-c4cccc(C(F)(F)F)c4)n3n2)CC1 (stereo not given) + Cc1[nH]c2ccc(F)cc2c1-c1nc2c3cccnc3c3ncccc3c2[nH]1"
  Readout value: 79.3
- Compound: "O=C(NO)c1cnc(N2CCN(S(=O)(=O)c3ccc4ccccc4c3)CC2)nc1 + Cc1[nH]c2ccc(F)cc2c1-c1nc2c3cccnc3c3ncccc3c2[nH]1"
  Readout value: 123
- Compound: "COc1ncnc(C2CC2)c1-c1ncc2cnn(Cc3ccc(-c4nc(C(F)(F)F)cn4C(C)C)cc3)c2n1 + CN(C)c1ccc(Nc2c3ccc(NC(=O)CCN4CCCC4)cc3nc3cc(NC(=O)CCN4CCCC4)ccc23)cc1"
  Readout value: 93
- Compound: "O=c1[nH]cc(F)c(=O)[nH]1 + Cc1[nH]c2ccc(F)cc2c1-c1nc2c3cccnc3c3ncccc3c2[nH]1"
  Readout value: 97.2
- Compound: "Cc1cccc(N(C)C(=O)C2C(O)CCN2c2nc(C)cc(C(F)(F)F)c2C#N)c1 (stereo not given) + CN(C)c1ccc(Nc2c3ccc(NC(=O)CCN4CCCC4)cc3nc3cc(NC(=O)CCN4CCCC4)ccc23)cc1"
  Readout value: 72.1
